Entries annotated with measured noxious heat displacement strength
# Test system: Dugesia japonica
# TEST METHOD NOTES: noxious heat displacement strength vs vehicle (% change vs vehicle); higher = higher incidence or increase relative to vehicle control
# EXPERIMENTAL CONTEXT: exposure time: 15 min to 3 h acute
Counter-ions that a name gives are not always drawn.
The answer should be a number; do not append a unit.

Recorded noxious heat displacement strength, per entry:
[[record]]
compound = "O=C(CCCN1CCC(O)(c2ccc(Cl)cc2)CC1)c1ccc(F)cc1 [haloperidol] (10 µM)"
data_value = -26.4

[[record]]
compound = "CCCCNc1c(C(=O)OCC)c(C)nc2c1cnn2CC [tracazolate hydrochloride] (1 µM)"
data_value = -26.2

[[record]]
compound = "CN1CCN(CCCN2c3ccccc3Sc3ccc(Cl)cc32)CC1 [prochloroperazine] (1 µM)"
data_value = -10.7

[[record]]
compound = "CNCC[C@H](Oc1cccc2ccccc12)c1cccs1 [s-duloxetine] (1 µM)"
data_value = -35.3

[[record]]
compound = "Cc1ncc2n1-c1ccc(Cl)cc1C(c1ccccc1F)=NC2 [midazolam] (10 µM)"
data_value = -18.8

[[record]]
compound = "CN1CCN(CCCN2c3ccccc3Sc3ccc(Cl)cc32)CC1 [prochloroperazine] (10 µM)"
data_value = -55.5


Provide measured noxious heat displacement strength on Dugesia japonica for Cc1cc2c(s1)Nc1ccccc1N=C2N1CCN(C)CC1 [olanzapine] (31.6 µM) please.
-52.3

Please tell me the measured noxious heat displacement strength for O=C(CCCN1CCC(O)(c2ccc(Cl)cc2)CC1)c1ccc(F)cc1 [haloperidol] (3.16 µM) ; system: Dugesia japonica.
-30.8

For Dugesia japonica, give the measured noxious heat displacement strength of the entry CN1CCN(C2=Nc3cc(Cl)ccc3Nc3ccccc32)CC1 [clozapine] (31.6 µM)
-34.2
